Tested on: Prostate cancer cell line LNcaP
Test: Inhibitory activity on cancer cells, CellTiter-Glo viability, LNcaP
Assay type: cell-based
Details: Homo sapiens, 72 hours treatment
Endpoint: IC50 (µM)

Consider the worked cases shown below.
CCOc1ccnc2c(O)c([N+](=O)[O-])cc(Cl)c12; 5.22
O=[N+]([O-])c1cc(Cl)c2c(Oc3ccccc3)ccnc2c1O; 0.97
COC(=O)N1CCN(c2ccnc3c(O)c([N+](=O)[O-])cc(Cl)c23)CC1; 0.96

1: CN(C)CCOc1ccnc2c(O)c([N+](=O)[O-])ccc12
2: O=[N+]([O-])c1cc(Cl)c2c(Cl)ccnc2c1O
[Q] Which item exceeds the other in IC50, 1 or 2 ? // return label of chosen record
[A] 1

I: O=C1CCN(c2ccnc3c(O)c([N+](=O)[O-])cc(Cl)c23)CC1
II: CS(=O)(=O)N1CCN(c2ccnc3c(O)c([N+](=O)[O-])cc(Cl)c23)CC1
[Q] Compare I and II and name the one whose reported IC50 is smaller. // return label of chosen record
[A] II
